Entries and their measured t1/2 increase over t1/2 of PTZ follow.
- Experimental Protocol: Metabolic stability in human liver microsomes
- Assay type: in vitro ADME
- Assay Setup: human liver microsomes
Recorded Endpoint: t1/2 increase over t1/2 of PTZ (%)

>  <Chemical String>
[2H]C1([2H])Cc2nnnn2CC([2H])([2H])C1([2H])[2H]

>  <Recorded Endpoint>
t1/2 increase over t1/2 of PTZ

>  <Data Value>
−2.9

$$$$
>  <Chemical String>
[2H]C1([2H])CC([2H])([2H])c2nnnn2C([2H])([2H])C1

>  <Recorded Endpoint>
t1/2 increase over t1/2 of PTZ

>  <Data Value>
8.8

$$$$
>  <Chemical String>
[2H]C1([2H])CCCC([2H])([2H])n2nnnc21

>  <Recorded Endpoint>
t1/2 increase over t1/2 of PTZ

>  <Data Value>
6.3

$$$$
>  <Chemical String>
[2H]C1([2H])c2nnnn2C([2H])([2H])C([2H])([2H])C([2H])([2H])C1([2H])[2H]

>  <Recorded Endpoint>
t1/2 increase over t1/2 of PTZ

>  <Data Value>
45.1

$$$$

Measured values drawn from patent US9951076B2 for this set.
